Would you kindly list MIC (ug/mL) (+) Fluc for each of these compounds?
Test system: A. fumigatus CEA10 reference strain
Assay: Fluconazole potentiator screen: MIC by CLSI microbroth dilution with and without fluconazole
Format: cell-based, Aspergillus fumigatus
Conditions: with 32 μg/ml fluconazole; normoxia; GMM, 18 h, 37 °C
Answers are plain numbers, in µg/mL.

| COMPOUND | MIC (ug/mL) (+) Fluc [µg/mL] |
| --- | --- |
| O=S(=O)(c1ccc(F)cc1)N1CCC(Cc2ccc(CN3CCOCC3)cc2)CC1 | 0.08 |
| O=S(=O)(c1ccc(F)cc1)N1CCC(Cc2ccc(COc3ccncc3)cc2)C1 (stereo not drawn) | 0.20 |
| O=C(c1cncs1)N1CCC(Cc2ccc(COc3ccncc3)cc2)CC1 | 2.50 |
| O=C(c1ccc(Cl)cc1)N1CCC(Cc2ccc(COc3ccncc3)cc2)CC1 | 1.05 |
| O=S(=O)(c1ccc(C(F)(F)F)cc1)N1CCC(Cc2ccc(CN3CCOCC3)cc2)CC1 | 0.50 |

Quick batch: MIC (ug/mL) (+) Fluc for everything below.
1. CC(c1ccc(CC2CCN(S(=O)(=O)c3cccc(F)c3)CC2)cc1)N1CCOCC1 (stereo not drawn)
2. Nc1cc(OCc2ccc(CC3CCN(C(=O)c4ccsc4)CC3)cc2)ccn1
3. O=C(c1ccsc1)N1CCC(Cc2ccc(COc3ccncc3)nc2)CC1
4. O=S(=O)(c1cccc(Cl)c1)N1CCC(Cc2ccc(CN3CCOCC3)cc2)CC1
5. CN1CCN(c2ccc(CC3CCN(S(=O)(=O)c4ccc(F)cc4)CC3)cc2)CC1

Reply |
0.44
11.00
1.20
2.50
0.19
